Assay: Preliminary pharmacokinetic test, intravenous injection
Type: in vivo, SD rats
Details: male, SD, rat, plasma, iv, 5 mg/kg, rats, intravenous injection 5 mg/kg, individual animal; tested as monomesylate
Exercise: state measured half-life for each of the compounds provided.
Number only, in h; omit the unit.

Exam item: Could you share which half-life value was measured for COC(=O)Nc1cc(C(F)(F)F)c(-c2nc(N3CCOCC3)c3cc(CN4CCN(S(C)(=O)=O)CC4)c(C)n3n2)cn1 ?
Marked response: 2.61

Exam item: Could you share which half-life value was measured for COC(=O)Nc1cc(C(F)(F)F)c(-c2nc(N3CCOCC3)c3cc(CN4CCN(S(C)(=O)=O)CC4)cn3n2)cn1 [CYH33, reference compound] ?
Marked response: 0.83

====

Molecular target: PI3Kδ (Homo sapiens)
Sequence (O00329 whole entry, canonical isoform): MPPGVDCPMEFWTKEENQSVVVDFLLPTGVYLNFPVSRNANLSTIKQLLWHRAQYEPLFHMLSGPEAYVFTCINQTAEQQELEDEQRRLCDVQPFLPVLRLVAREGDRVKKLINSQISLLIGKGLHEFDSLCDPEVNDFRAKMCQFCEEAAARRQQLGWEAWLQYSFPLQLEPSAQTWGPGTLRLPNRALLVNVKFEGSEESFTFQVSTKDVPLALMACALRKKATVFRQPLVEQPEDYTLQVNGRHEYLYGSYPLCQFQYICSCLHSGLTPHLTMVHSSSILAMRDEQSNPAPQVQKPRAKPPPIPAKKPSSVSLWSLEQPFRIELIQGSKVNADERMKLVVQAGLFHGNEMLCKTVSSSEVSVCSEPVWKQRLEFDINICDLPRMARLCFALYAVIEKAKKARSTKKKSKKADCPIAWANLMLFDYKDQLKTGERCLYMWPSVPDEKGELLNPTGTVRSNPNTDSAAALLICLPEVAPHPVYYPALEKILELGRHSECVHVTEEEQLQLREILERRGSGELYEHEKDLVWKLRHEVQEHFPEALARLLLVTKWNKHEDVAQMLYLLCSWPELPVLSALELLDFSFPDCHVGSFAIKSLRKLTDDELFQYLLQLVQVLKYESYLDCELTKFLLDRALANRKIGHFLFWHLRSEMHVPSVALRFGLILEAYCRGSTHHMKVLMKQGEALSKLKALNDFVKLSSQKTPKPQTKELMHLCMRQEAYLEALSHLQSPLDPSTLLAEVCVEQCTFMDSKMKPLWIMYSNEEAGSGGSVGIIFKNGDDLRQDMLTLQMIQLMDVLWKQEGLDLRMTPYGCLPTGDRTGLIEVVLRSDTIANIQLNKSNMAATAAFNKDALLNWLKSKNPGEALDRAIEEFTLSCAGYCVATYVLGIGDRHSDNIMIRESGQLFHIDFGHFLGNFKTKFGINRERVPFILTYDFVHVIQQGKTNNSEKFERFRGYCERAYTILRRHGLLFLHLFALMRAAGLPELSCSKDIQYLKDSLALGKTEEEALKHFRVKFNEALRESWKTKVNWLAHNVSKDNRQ
Sequence (P27986 whole entry partner, canonical isoform): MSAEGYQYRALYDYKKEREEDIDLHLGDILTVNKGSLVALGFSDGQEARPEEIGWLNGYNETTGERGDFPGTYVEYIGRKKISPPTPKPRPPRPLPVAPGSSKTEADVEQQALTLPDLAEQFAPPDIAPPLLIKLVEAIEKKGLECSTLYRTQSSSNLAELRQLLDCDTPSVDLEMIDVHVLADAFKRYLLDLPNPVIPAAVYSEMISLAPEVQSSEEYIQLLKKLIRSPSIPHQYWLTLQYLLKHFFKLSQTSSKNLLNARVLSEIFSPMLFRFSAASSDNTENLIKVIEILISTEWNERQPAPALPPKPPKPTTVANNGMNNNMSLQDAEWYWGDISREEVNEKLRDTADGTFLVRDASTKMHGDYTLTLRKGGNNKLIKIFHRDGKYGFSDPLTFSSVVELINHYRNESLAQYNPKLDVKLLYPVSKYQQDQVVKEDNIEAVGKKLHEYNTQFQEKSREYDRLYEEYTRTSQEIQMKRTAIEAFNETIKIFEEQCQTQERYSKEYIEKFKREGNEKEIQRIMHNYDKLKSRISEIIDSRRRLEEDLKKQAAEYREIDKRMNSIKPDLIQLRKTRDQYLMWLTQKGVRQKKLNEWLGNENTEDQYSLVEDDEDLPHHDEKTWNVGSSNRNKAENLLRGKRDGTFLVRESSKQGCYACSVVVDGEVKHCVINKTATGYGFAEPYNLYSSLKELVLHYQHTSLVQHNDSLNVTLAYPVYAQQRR
Assay: PI3K kinase activity, δ isoform
Conditions: read-out: IH (%) @ 20 nM, δ
ENDPOINT LABEL: inhibition at 0.02 µM (%)
Number only, in %; omit the unit.

Exam item: Could you share which inhibition at 0.02 µM value was measured for Cc1c(CN2CCN(S(C)(=O)=O)CC2)cc2c(N3CCOCC3)nc(-c3cnc(N)cc3C(F)(F)F)nn12 ?
Marked response: 51.2

Exam item: Could you share which inhibition at 0.02 µM value was measured for Cc1c(CN2CCN(S(C)(=O)=O)CC2)cc2c(N3CCOC[C@@H]3C)nc(-c3cnc(N)cc3C(F)(F)F)nn12 ?
Marked response: 39.7

Exam item: Could you share which inhibition at 0.02 µM value was measured for Cc1c(CN2CCC(C(C)(C)O)CC2)cc2c(N3CCOCC3)nc(-c3cnc(N)cc3C(F)(F)F)nn12 ?
Marked response: 53.2

Exam item: Could you share which inhibition at 0.02 µM value was measured for Cc1c(CN2CCN(S(C)(=O)=O)CC2)cc2c(N3CCOCC3)nc(-c3cnc(NC(=O)NC4CC4)cc3C(F)(F)F)nn12 ?
Marked response: 83.1

Exam item: Could you share which inhibition at 0.02 µM value was measured for CS(=O)(=O)N1CCN(Cc2cc3c(N4CCOCC4)nc(-c4cnc(N)cc4C(F)(F)F)nn3c2Cl)CC1 ?
Marked response: 50.3

Exam item: Could you share which inhibition at 0.02 µM value was measured for Cc1c(CN2CCN(C(=O)[C@H](C)O)CC2)cc2c(N3CCOCC3)nc(-c3cnc(N)cc3C(F)(F)F)nn12 ?
Marked response: 63.3

Exam item: Could you share which inhibition at 0.02 µM value was measured for Cc1c(CN2CCN(S(C)(=O)=O)CC2)cc2c(N3CCOCC3)nc(-c3cnc(NC(=O)Nc4ccc(F)cc4)cc3C(F)(F)F)nn12 ?
Marked response: 77.1

Exam item: Could you share which inhibition at 0.02 µM value was measured for CCN1CCN(Cc2cc3c(N4CCOCC4)nc(-c4cnc(N)cc4C(F)(F)F)nn3c2C)CC1 ?
Marked response: 41.4

Exam item: Could you share which inhibition at 0.02 µM value was measured for Cc1c(CN2CCN(C(=O)C(C)(C)O)CC2)cc2c(N3CCOCC3)nc(-c3cnc(N)cc3C(F)(F)F)nn12 ?
Marked response: 41.2

Exam item: Could you share which inhibition at 0.02 µM value was measured for Cc1c(CNCCCN(C)C)cc2c(N3CCOCC3)nc(-c3cnc(N)cc3C(F)(F)F)nn12 ?
Marked response: 46

Exam item: Could you share which inhibition at 0.02 µM value was measured for Cc1c(CN2CCN(S(C)(=O)=O)CC2)cc2c(N3CCOCC3)nc(-c3cnc(NC(=O)NC(C)C)cc3C(F)(F)F)nn12 ?
Marked response: 46.5

Exam item: Could you share which inhibition at 0.02 µM value was measured for CCNC(=O)Nc1cc(C(F)(F)F)c(-c2nc(N3CCOCC3)c3cc(CN4CCN(S(C)(=O)=O)CC4)c(C)n3n2)cn1 ?
Marked response: 107

Exam item: Could you share which inhibition at 0.02 µM value was measured for Cc1c(CN2CCC(N(C)C)CC2)cc2c(N3CCOCC3)nc(-c3cnc(N)cc3C(F)(F)F)nn12 ?
Marked response: 53.6

Exam item: Could you share which inhibition at 0.02 µM value was measured for COC(=O)Nc1cc(C(F)(F)F)c(-c2nc(N3CCOCC3)c3cc(CN4CCN(S(C)(=O)=O)CC4)c(C)n3n2)cn1 ?
Marked response: 64.1

Exam item: Could you share which inhibition at 0.02 µM value was measured for COCCCNCc1cc2c(N3CCOCC3)nc(-c3cnc(N)cc3C(F)(F)F)nn2c1C ?
Marked response: 39.8

Exam item: Could you share which inhibition at 0.02 µM value was measured for CS(=O)(=O)N1CCN(Cc2cc3nc(-c4cccc5[nH]ncc45)nc(N4CCOCC4)c3s2)CC1 [GDC0941, reference compound] ?
Marked response: 56.3

====

Biological target: PI3Kβ (Homo sapiens, UniProt P42338)
Sequence (P42338 whole entry, one chain of several, canonical isoform): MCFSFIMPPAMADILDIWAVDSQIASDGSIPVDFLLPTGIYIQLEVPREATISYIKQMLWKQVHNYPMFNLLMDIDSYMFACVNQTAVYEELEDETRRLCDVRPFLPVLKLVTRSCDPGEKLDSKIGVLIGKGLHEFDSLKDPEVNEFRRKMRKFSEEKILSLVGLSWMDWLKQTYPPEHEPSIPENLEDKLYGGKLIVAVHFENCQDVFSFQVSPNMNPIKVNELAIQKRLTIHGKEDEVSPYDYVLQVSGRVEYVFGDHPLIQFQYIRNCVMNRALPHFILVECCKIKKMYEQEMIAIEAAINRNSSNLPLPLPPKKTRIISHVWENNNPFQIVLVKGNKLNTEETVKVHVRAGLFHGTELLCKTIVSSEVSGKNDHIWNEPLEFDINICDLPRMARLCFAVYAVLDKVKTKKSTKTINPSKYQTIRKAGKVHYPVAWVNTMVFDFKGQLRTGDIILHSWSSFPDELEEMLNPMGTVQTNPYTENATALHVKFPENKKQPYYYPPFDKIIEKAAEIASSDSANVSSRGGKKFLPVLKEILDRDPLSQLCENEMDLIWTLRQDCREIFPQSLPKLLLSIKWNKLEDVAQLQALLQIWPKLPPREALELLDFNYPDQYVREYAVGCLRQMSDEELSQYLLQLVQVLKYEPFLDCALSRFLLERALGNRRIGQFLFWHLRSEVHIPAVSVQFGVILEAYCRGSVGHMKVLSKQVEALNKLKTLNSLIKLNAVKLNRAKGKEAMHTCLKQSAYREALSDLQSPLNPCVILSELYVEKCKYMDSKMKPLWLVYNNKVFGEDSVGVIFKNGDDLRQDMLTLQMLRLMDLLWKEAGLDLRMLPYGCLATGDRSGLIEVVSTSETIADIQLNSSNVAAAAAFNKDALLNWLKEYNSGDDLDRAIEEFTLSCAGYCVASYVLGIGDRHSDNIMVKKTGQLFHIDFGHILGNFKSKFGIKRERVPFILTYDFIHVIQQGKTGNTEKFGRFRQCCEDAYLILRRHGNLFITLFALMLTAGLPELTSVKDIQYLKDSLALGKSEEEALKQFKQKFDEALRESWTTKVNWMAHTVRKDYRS
Assay: PI3K kinase activity, β isoform;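 also: kinase reaction containing 1% DMSO, read as an emission ratio, with inhibition scaled between the 0% and 100% control ratios. IC50 values come from a ten-point fourfold dilution series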
Settings: read-out: IH (%) @ 100 nM, β
Label yes (1) for high-side inhibition at 0.1 µM (at or above 8%) and no (0) for low-side inhibition at 0.1 µM (below it).

Exam item: Could you verify whether the entry Cc1c(CN2CCN(S(C)(=O)=O)CC2)cc2c(N3CCOCC3)nc(-c3cnc(NC(=O)Nc4ccc(F)cc4)cc3C(F)(F)F)nn12 [Compound P-23] shows inhibition at 0.1 µM of no less than 8%?
Marked response: yes (1)

Exam item: Could you verify whether the entry Cc1c(CN2CCC(N(C)C)CC2)cc2c(N3CCOCC3)nc(-c3cnc(N)cc3C(F)(F)F)nn12 [Compound P-7] shows inhibition at 0.1 µM of no less than 8%?
Marked response: no (0)

Exam item: Could you verify whether the entry CCN1CCN(Cc2cc3c(N4CCOCC4)nc(-c4cnc(N)cc4C(F)(F)F)nn3c2C)CC1 [Compound P-6] shows inhibition at 0.1 µM of no less than 8%?
Marked response: yes (1)

Exam item: Could you verify whether the entry Cc1c(CN2CCN(S(C)(=O)=O)CC2)cc2c(N3CCOCC3)nc(-c3cnc(NC(=O)NC4CC4)cc3C(F)(F)F)nn12 [Compound P-20] shows inhibition at 0.1 µM of no less than 8%?
Marked response: yes (1)

Exam item: Could you verify whether the entry CS(=O)(=O)N1CCN(Cc2cc3c(N4CCOCC4)nc(-c4cnc(N)cc4C(F)(F)F)nn3c2Cl)CC1 [Compound P-11] shows inhibition at 0.1 µM of no less than 8%?
Marked response: yes (1)

Exam item: Could you verify whether the entry Cc1c(CN2CCN(S(C)(=O)=O)CC2)cc2c(N3CCOCC3)nc(-c3cnc(NC(=O)NC(C)C)cc3C(F)(F)F)nn12 [Compound P-22] shows inhibition at 0.1 µM of no less than 8%?
Marked response: yes (1)

Exam item: Could you verify whether the entry Cc1c(CNCCCN(C)C)cc2c(N3CCOCC3)nc(-c3cnc(N)cc3C(F)(F)F)nn12 [Compound P-2] shows inhibition at 0.1 µM of no less than 8%?
Marked response: no (0)

Exam item: Could you verify whether the entry Cc1c(CN2CCN(C(=O)[C@H](C)O)CC2)cc2c(N3CCOCC3)nc(-c3cnc(N)cc3C(F)(F)F)nn12 [Compound P-14] shows inhibition at 0.1 µM of no less than 8%?
Marked response: no (0)

====

Exercise: state measured MRT for each of the compounds provided.
Experiment: Preliminary pharmacokinetic test, intravenous injection
Type: in vivo, SD rats
Conditions: male, SD, rat, plasma, iv, 5 mg/kg, rats, intravenous injection 5 mg/kg, Mean; tested as monomesylate; read-out: MRT
Number only, in h; omit the unit.

Exam item: Could you share which MRT value was measured for COC(=O)Nc1cc(C(F)(F)F)c(-c2nc(N3CCOCC3)c3cc(CN4CCN(S(C)(=O)=O)CC4)c(C)n3n2)cn1 [Compound P-17] ?
Marked response: 2.71

Exam item: Could you share which MRT value was measured for COC(=O)Nc1cc(C(F)(F)F)c(-c2nc(N3CCOCC3)c3cc(CN4CCN(S(C)(=O)=O)CC4)cn3n2)cn1 [CYH33, reference compound] ?
Marked response: 1.31

====

Molecular target: PI3Kγ (Homo sapiens, UniProt P48736)
Sequence (P48736 whole entry, canonical isoform): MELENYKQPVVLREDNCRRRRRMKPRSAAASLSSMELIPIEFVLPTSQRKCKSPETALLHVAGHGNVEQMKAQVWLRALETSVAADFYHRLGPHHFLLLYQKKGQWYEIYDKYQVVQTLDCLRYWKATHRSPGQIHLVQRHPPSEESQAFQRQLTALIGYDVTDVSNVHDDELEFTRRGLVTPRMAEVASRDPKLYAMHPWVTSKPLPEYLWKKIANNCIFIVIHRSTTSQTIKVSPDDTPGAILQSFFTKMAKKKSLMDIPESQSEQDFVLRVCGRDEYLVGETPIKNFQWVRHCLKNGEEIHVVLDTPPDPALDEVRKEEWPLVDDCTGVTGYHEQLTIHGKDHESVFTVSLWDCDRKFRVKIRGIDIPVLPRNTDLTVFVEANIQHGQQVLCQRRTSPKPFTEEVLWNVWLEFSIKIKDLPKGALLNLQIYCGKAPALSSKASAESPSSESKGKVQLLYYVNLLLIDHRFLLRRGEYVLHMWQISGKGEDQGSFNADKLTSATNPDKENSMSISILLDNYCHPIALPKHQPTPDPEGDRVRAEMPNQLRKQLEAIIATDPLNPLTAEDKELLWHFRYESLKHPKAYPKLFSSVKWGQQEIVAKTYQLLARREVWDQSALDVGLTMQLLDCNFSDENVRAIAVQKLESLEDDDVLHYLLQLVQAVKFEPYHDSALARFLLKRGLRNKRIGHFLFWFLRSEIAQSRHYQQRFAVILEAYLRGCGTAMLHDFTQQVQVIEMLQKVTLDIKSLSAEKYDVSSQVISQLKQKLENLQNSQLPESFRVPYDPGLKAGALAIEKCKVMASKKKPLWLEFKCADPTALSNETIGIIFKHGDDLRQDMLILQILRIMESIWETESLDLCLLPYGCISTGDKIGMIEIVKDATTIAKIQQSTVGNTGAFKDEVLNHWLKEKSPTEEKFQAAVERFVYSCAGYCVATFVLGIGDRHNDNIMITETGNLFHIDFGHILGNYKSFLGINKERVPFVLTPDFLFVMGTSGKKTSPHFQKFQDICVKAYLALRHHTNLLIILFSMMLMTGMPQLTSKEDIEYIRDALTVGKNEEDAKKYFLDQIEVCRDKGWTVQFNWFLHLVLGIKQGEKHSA
Experiment: PI3K kinase activity, γ isoform;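 also: kinase reaction run in 384-well plates, with inhibition normalised between the 0% and 100% reference reactions. IC50 derived from a ten-point, fourfold serial dilution series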
Assay type: biochemical
Exercise: state measured IC50 for each of the compounds provided.
Number only, in nM; omit the unit.

Exam item: Could you share which IC50 value was measured for CCN1CCN(Cc2cc3c(N4CCOCC4)nc(-c4cnc(N)cc4C(F)(F)F)nn3c2C)CC1 ?
Marked response: 9870

Exam item: Could you share which IC50 value was measured for CS(=O)(=O)N1CCN(Cc2cc3c(N4CCOCC4)nc(-c4cnc(N)cc4C(F)(F)F)nn3c2Cl)CC1 ?
Marked response: 248

Exam item: Could you share which IC50 value was measured for COC(=O)Nc1cc(C(F)(F)F)c(-c2nc(N3CCOCC3)c3cc(CN4CCN(S(C)(=O)=O)CC4)c(C)n3n2)cn1 ?
Marked response: 290

Exam item: Could you share which IC50 value was measured for Cc1c(CN2CCN(S(C)(=O)=O)CC2)cc2c(N3CCOC[C@@H]3C)nc(-c3cnc(N)cc3C(F)(F)F)nn12 ?
Marked response: 202

Exam item: Could you share which IC50 value was measured for Cc1c(CN2CCN(C(=O)[C@H](C)O)CC2)cc2c(N3CCOCC3)nc(-c3cnc(N)cc3C(F)(F)F)nn12 ?
Marked response: 1950

Exam item: Could you share which IC50 value was measured for Cc1c(CN2CCC(N(C)C)CC2)cc2c(N3CCOCC3)nc(-c3cnc(N)cc3C(F)(F)F)nn12 ?
Marked response: 15300

Exam item: Could you share which IC50 value was measured for CCNC(=O)Nc1cc(C(F)(F)F)c(-c2nc(N3CCOCC3)c3cc(CN4CCN(S(C)(=O)=O)CC4)c(C)n3n2)cn1 ?
Marked response: 37.5

Exam item: Could you share which IC50 value was measured for Cc1c(CN2CCN(S(C)(=O)=O)CC2)cc2c(N3CCOCC3)nc(-c3cnc(NC(=O)NC(C)C)cc3C(F)(F)F)nn12 ?
Marked response: 311

Exam item: Could you share which IC50 value was measured for Cc1c(CN2CCC(C(C)(C)O)CC2)cc2c(N3CCOCC3)nc(-c3cnc(N)cc3C(F)(F)F)nn12 ?
Marked response: 4830
